The measured values listed here are drawn from the DeepSol protein solubility set.

assay: soluble on expression in E. coli; label from the status in PepcDB or PDB records
measured endpoint: soluble on expression in E. coli

// worked examples, soluble on expression in E. coli included
MAATQEEIVAGLAEIVNEIAGIPVEDVKLDKSFTDDLDVDSLSMVEVVVAAEERFDVKIPDDDVKNLKTVGDATKYILDHQA	soluble
MGSDKIHHHHHHMEFTKKSKLKNMYVNMNVARMLSKINEYKGRQLLYKKQPKEILENLEKKSLVDCSESTYIGNQRDSSNFNLEKLISNEVTPRSREELSIVEYRDVVKTINSAYESIPISSQTILELHGYLYKFSSTRGGSYKSDNDFIEHNLKPSEFISTDSSVNKVEKAVEEICEAYNTLIEEDEIDILILISAFVLDFILIHPFKEGNIKMARVLILLLLNKNGYEVGRYISLGKIFDDSSYEYYSNLNYLKASIGSEKADMNAWIEYFLETILTAYEKLDDSLNISDKKRQTKTSRIEKIINSTLGYFTKEDIRDLCPDIPEPTINRVFNNLRKQDKIEVVARGRSAKWKKKY	not soluble
MGSDKIHHHHHHMFIVSKQTTTEYGTGCFAAPSSSCQSEYNPKVENDAVAHNSISGLRGSLRRNSSNLSSQLTALQETCLADAAQIEINCSTSNAKQAFFVKIEVPTGEQGVLHFSPSSGDISQVFTPIQNGCGHGVWKFVVCTMENGSEIAHSQVSRNLDGVGILFFNVYEDLEIRLAQQEFLHISHCHTRRH	not soluble
GSAGERIYNISGNGSPLADSKEIFLTVPVGGGESLRLLASDLQRHSIAQLDPEALGNIKKLSNRLAQICSSIRTHK	soluble

Next, consider the following sequence.
Query: Recorded soluble on expression in E. coli of MSLQTPDTATTAPYLLAGAPTFDLSISQFREDFNSQNPSLPLNEFRAIDSSPDKANLTRAASKINENLYASTALERGTLKIKSIQMTWLPIQGPEQKAAKAKAQEYMAAVIRTLTPLMTKTQSQKKLQSLLTAGKNKRYYTETEGALRYVVADNGEKGLTFAVEPIKLALSESLEGLNKEGHHHHHH , please.
Result: soluble

###

assay: soluble on expression in E. coli; label from the status in PepcDB or PDB records
measured endpoint: soluble on expression in E. coli

// worked examples, soluble on expression in E. coli included
MGSDKIHHHHHHMTGLTEDLFGELLPPASPPQACVAGGGAPSPDKASRGKSVLPARPDPAIDALARRLPPNLYLGTSSWSYNGWNGLVYDGEYSDNLLSRKGLAAYSRHPLLRAAGIDRGFYGPIPLADYLSYAAQVPEQFRFLVKAPASVCDAWLRGSDGVGRLANAAFLDAEIAIRDFITPATSGLGAKCGPLLFQLSPLGSLANDAAAFLDRLDGFLSALPPLDPSITPHACYAVEMRDPVLLTPRYIKLLRRYGVRFCLSARDRLPPVHRQASAQALMDAEAPGPLVLRWMLHAGRPYEVAESIYAPFNRLVDEDPETRDAIADLVVRTLNAGQSATVIISNKAEGSAPLTCIRLAEAIAARL	not soluble
MTDRKIRQISALLIEVYNGIMQVEDKYLRTTQFRDITVKEVHTIDAITMYDYKTTTAVARQLRLSPGTVTASIDKLVRKGYVVRLQSKDDQRVIRLGLTRRGRLIYRAHQSFHRQMTESFLNGMDPEQVDIIEHSLLNLQTFLQIADEKGDSNEND	not soluble
AKFREIANIALGKGAAIMADHLHEFIQLPVPHVGPLSYGELHMTLVDVIGRDSSVAVSQRFVGGGIHGEALVCLRGKDINQIGERLGYLLEFTPHNEIILNVSNLLVSSFLTSLGNQLDKQFSLRQPGIVDTITPYNEEQGESGELFTIEYTYMAEALDFECEVLFLIDKPSVEIIYEIMELI	not soluble
MHEYSIVSALIEQCEQYAKANQATKVTRVEIKLGVMSGVEPALLQTAFETFKLDGICREAKLCMTLQPLVIKCADCQQESVLDERSIVCPACNSYHTRVLDGEEMLLMQLEMEQAEDA	soluble
MVKVVGVRFKKAGKIYYFDPGDLEINLHENVIVETARGIEFGQVVVPNTEVSEEEIVAPLKKVIRVATEEDKAHHEDNIRREKEAFDICLQKIANHKLEMKLVGVEYTFDNNKILFYFTADGRVDFRELVKDLASVFRTRIELRQIGVRDEAKMMGGLGVCGRVLCCNSFLGEFQPVSIKMAKEQGLSLNPAKISGACGRLMCCLKYEQEAYEEIISRVPKEGAIVETPDGQGVVMSVSLLKELVKVKLDRENETDLKVYKASEVKVIKDVTREETEEEEIDLDELKQLED	soluble

Next, consider the following sequence.
Query: Recorded soluble on expression in E. coli of MGSDKIHHHHHHMNGGKPGVERDRREALLALAAALRPELHRYCARLMGSVIDGEDVVQDTFARAFVALDELCAVPQLRPWLFRIAHNRALDLLRSRATRVAEPIEAALEIVDDSKADAVETLMRKEAIETAVSRFAELPVVQRSVIILKDVLDEPLAEIAALLGISVDAVKAHLSRGRARLREINARTDPFPDARIASANVVRYINLFNQRDWDGLRALLAEDVRLQQSMHPPRSGAADVGMFFTIYAKSEGLWLKPAWVEGREVIAVFEHRAAPKPTHFMWLEWREGRISFIRDYRYVGYVADDARLVLASDVRSSGHGTKL , please.
Result: not soluble

###

assay: soluble on expression in E. coli; label from the status in PepcDB or PDB records
measured endpoint: soluble on expression in E. coli

MKSHVTDLTETLSSMEISRLEQQLTDFEAKKGSQIALLIIPTTQPETIEQYSIQVAEVWKLGRKGIDDGVLLLVAKNDRTLRIETGYGLEGVLPDALARRIIDEIIVPKFRQGHFFGGLQAGVEQIISIIEGETLPESLEHHHHHH	not soluble
RSDSMILMTVNPKTKKTTMMSLERDILTRIESGNGQAHEAKLNSAYADGGAELAIETIQKMMNIHIDRYVMVNMRGLQKLVDAVGGITVNNILGFPISISDQEEFNTISIGVGEQHIGGEEALVYARMRYQDPEGDYGRQKRQREVIQKVMEKALS	not soluble
MGSDKIHHHHHHMATTESFAQTLAAKQPRLLAAFKHIIAQNHLAHAYLFAGMEGAGQPELAHWIAQRLFCLHINDGEPDGTCEECVRIANGSHPDIVTVAPEGQRIHVDQVRYLKAEFSKSAVEGNRKLFIINDAEKMTASAANSLLKFIEEPSGNVTALLLTTNKQLMLPTIISRTQVIEFPPLNAQALQQTFEQAGIAPNQAQMLRGLTNSVTQAQALLADDWLPQAAQALWRWFDQAVKGDPRSFVAVQVNLVGLAKDADHQLVMLDLIAALFQDLLQLHFEVATTALTFGQYQKELAGLTAEVSDEQLIAATELALTAKRQLASNISFQNVLEGLTLKLWPIFQTNA	not soluble
MFDVLMYLFETYIHNEAELRVDQDRLERDLTDAGFDREDIYNALLWLEKLADYQDGLAEPMQLASDPLSMRIYTVEECERLDASCRGFLLFLEQIQVLNLETREMVIERVLALDTAEFDLEDLKWVILMVLFNIPGCENAYQQMEELLFEVNEGMLH	not soluble
MSLVVEQVKPNTGQEVQQIGQLQATKVKLPSTTKVALTKETQYLRNQVIASPVALFEIPADRGQMTLTITSEISDSVFYPHVMIVDAQGQVVESYEEVTFEYRKPRLHLGNRLVAELDFYPPQGYKSLFVLVYTKQQDLKGVTYVAHPARIDAEARGNYLPEVKDIPVPHTLTGTIELDVSGPSFLSFVRSEDRQTTTSTDAAKTQIQVQPDTQTYYFSSIERAVQANDLPKALSLLDEAKALGIEGAQEVFVKAVNARKEGHHHHHH	soluble

// input: 2 sequences below; output: soluble on expression in E. coli for each
1. MLGSLAAEKRSVFQTSCCVRYKGCMLGVGPTVWGVVWGLGCTVEARGLRKRFGGRTAVAGVSFSVGDGERACIMGPNGSGKTTLLRMVSGVLRPSGGSVRVCGYDVWGDGWREARGLIGFAPQDPPMARRMTGAEYITVVGGLLGLSPGVARREARRVLEMLGFEDVLGRVVARLSGGQRRALGIALALASNPEVVVLDEPGSGLDVRARESLWASLRKAFKGRTVLFSSHDPQEAEAESDRVLIMHRGRLAAWGKPRELIQRYAPKPRVRVWADRAPDGLEPVHTGPGFSDYLIEAPGDVARIASAYSGAGILVERIEVLKPSLREVFFAVTGEEMD
2. SLSRRKPNPVIVADIRQAEGALAEIATIDRKVGEIEAQMNEAIDAAKARASQKSAPLLARRKELEDGVATFATLNKTEMFKDRKSLDLGFGTIGFRLSTQIVQMSKITKDMTLERLRQFGISEGIRIKEDVNKEAMQGWPDERLEMVGLKRRTTDAFYIEINREEVADTAA

Result:
soluble
soluble
